The measured values listed here are drawn from patent US20240139185A1.

target: cyclophilin A (CYPA) (Homo sapiens, UniProt P62937); assay: CYPA-compound binary complex formation by SPR; settings: read-out: CYPA Binding Affinity
Each item that follows carries a reported Kd.

Use the examples below as a reference point.
COMPOUND	Kd
Cc1cc2ccc3cc2n1CC(C)(C)COC(=O)[C@@H]1CCCN(N1)C(=O)[C@@H](NC(=O)[C@H](C(C)C)N(C)C(=O)C1CN(C(=O)CCl)C1)Cc1cc(O)cc-3c1 [Compound 103]	> 15 µM
C=CC(=O)N1CCN([C@H](C(=O)N[C@H]2Cc3cc(O)cc(c3)-c3ccc4nccc(c4c3)OCCOC(=O)[C@@H]3CCCN(N3)C2=O)C(C)C)C1=O [Compound 2]	≤ 5 µM
CC(C)[C@@H](C(=O)N[C@H]1Cc2cc(O)cc(n2)-c2ccc3c(C(C)(C)C#N)cn(c3c2)C[C@H](C)COC(=O)[C@@H]2CCCN(N2)C1=O)N(C)C(=O)C1CN(C(=O)CCl)C1 [Compound 59]	> 15 µM
C=CC(=O)N1CCC(C(=O)N(C)C(C(=O)NC2Cc3cc(O)cc(c3)-c3ccc4c(c3)N(CC(C)(C)COC(=O)C3CCCN(N3)C2=O)CC4(C=CC#N)COC)C(C)C)C1 (centres unmarked) [Compound 404]	> 15 µM

Entry under review: CC1COC(=O)[C@@H]2CCCN(N2)C(=O)[C@@H](NC(=O)[C@H](C(C)C)N(C)C(=O)C2CN(C(=O)CCl)C2)Cc2cc(O)cc(c2)-c2ccc3c(c2)N(CCO3)C1 (single isomer, unassigned) [Compound 184] . Reported Kd?
≤ 5 µM

###

tested on: pERK in H358 cells; assay: pERK inhibition in H358 cells; assay type: cell-based, human; details: 4 hours treatment, read-out: Cellular pERK inhibition
pIC50: −log10 of the molar value.
OUTCOME MEASURE: pIC50

Use the examples below as a reference point.
COMPOUND	OUTCOME MEASURE	RESULT
CC(C)[C@@H](C(=O)N[C@H]1Cc2cc(O)cc(c2)-c2ccc3c(C4CCC4)cn(c3c2)C[C@H](C)COC(=O)[C@@H]2CCCN(N2)C1=O)N(C)C(=O)C1CN(C(=O)CCl)C1	pIC50	5.00 to 6.00
C#CCOCc1cc2ccc3cc2n1C[C@H](C)COC(=O)[C@@H]1CCCN(N1)C(=O)[C@@H](NC(=O)[C@H](C(C)C)N(C)C(=O)C1CN(C(=O)CCl)C1)Cc1cc(O)cc-3c1	pIC50	5.00 to 6.00
CCc1c(-c2ccccc2OC)n2c3cc(ccc13)-c1cc(O)cc(c1)C[C@H](NC(=O)[C@H](C(C)C)N(C)C(=O)C1CN(C(=O)CCl)C1)C(=O)N1CCC[C@H](N1)C(=O)OC[C@@H](C)C2	pIC50	≥ 6.00
CCN(C(=O)C1CN(C(=O)CCl)C1)[C@H](C(=O)N[C@H]1Cc2cc(O)cc(c2)-c2ccc3c(C(C)(C)C#N)cn(c3c2)CC(C)(C)COC(=O)[C@@H]2CCCN(N2)C1=O)C(C)C	pIC50	5.00 to 6.00
CC(C)[C@@H](C(=O)N[C@H]1Cc2cc(O)cc(c2)-c2ccc3c(C(C)(C)C#N)cn(c3c2)CC(CO)COC(=O)[C@@H]2CCCN(N2)C1=O)N(C)C(=O)C1CN(C(=O)CCl)C1 (single isomer, unassigned) [Compound 22]	pIC50	< 5.00

Entry under review: CC(C)C(C(=O)NC1Cc2cc(O)cc(c2)-c2ccc3c(C(C)(C)C#N)cn(c3c2)CC(F)COC(=O)C2CCCN(N2)C1=O)N(C)C(=O)C1CN(C(=O)CCl)C1 (single isomer, unassigned) . Reported pIC50?
< 5.00

Entry under review: CC1COC(=O)C2CCCN(N2)C(=O)C(NC(=O)C(C(C)C)N(C)C(=O)C2CN(C(=O)CCl)C2)Cc2cc(O)cc(c2)-c2ccc3c4c(n(c3c2)C1)COCC4(C)C#N (mixture of isomers) . Reported pIC50?
≥ 6.00

Entry under review: CC1COC(=O)[C@@H]2CCCN(N2)C(=O)[C@@H](NC(=O)[C@H](C(C)C)N(C)C(=O)C2CN(C(=O)CCl)C2)Cc2cc(O)cc(c2)-c2ccc3c(c2)c(cn3CC2COC2)C1 (single isomer, unassigned) [Compound 227] . Reported pIC50?
< 5.00

Entry under review: C=CC(=O)N1CCC(C(=O)N(C)C(C(=O)NC2Cc3cc(O)cc(c3)-c3ccc4cc(-c5ccccc5COC)n(c4c3)CC(C)(C)COC(=O)C3CCCN(N3)C2=O)C(C)C)C1 (stereo not drawn) . Reported pIC50?
≥ 6.00

###

Each item that follows carries a reported pEC50.
target: BRAF-GTP-KRAS-G12C complex (Homo sapiens, UniProt P01116+P62937, G12C); construct: 50 nM of His6-KRas G12C-GTP (1-169); 500 nM of tagless CypA (1-165); experiment: KRAS-BRAF complex disruption through competition with CYPA-compound by TR-FRET; settings: biochemical BRAF-KRAS G12C-GTP disruption assay EC50, with CYPA
pEC50: −log10 of the molar value.

Use the examples below as a reference point.
COMPOUND	EXPERIMENTAL SYSTEM	pEC50
C=CC(=O)N1CCN([C@H](C(=O)N[C@H]2Cc3cc(O)cc(c3)-c3ccc4c(CC#N)cn(c4c3)CCCOC(=O)[C@@H]3CCCN(N3)C2=O)C(C)C)C1=O [Compound 96]	BRAF-GTP-KRAS-G12C complex (Homo sapiens, UniProt P01116+P62937, G12C)	5.30 to 6.30
C=CC(=O)N1CCN(C(C(=O)NC2Cc3cc(O)cc(c3)-c3ccc4c(C#N)cn(c4c3)CCCOC(=O)C3CCCN(N3)C2=O)C(C)C)C1=O (centres unmarked) [Compound 94]	BRAF-GTP-KRAS-G12C complex (Homo sapiens, UniProt P01116+P62937, G12C)	5.30 to 6.30
CC1=C(C)C(=O)N(CC(=O)N(C)[C@H](C(=O)N[C@H]2Cc3cc(O)cc(c3)-c3ccc4nc(C)n(c4c3)CC(C)(C)COC(=O)[C@@H]3CCCN(N3)C2=O)C(C)C)C1=O [Compound 171]	BRAF-GTP-KRAS-G12C complex (Homo sapiens, UniProt P01116+P62937, G12C)	5.30 to 6.30

Entry under review: COCc1nc2ccc3cc2n1CC(C)(C)COC(=O)[C@@H]1CCCN(N1)C(=O)[C@@H](NC(=O)[C@H](C(C)C)N(C)C(=O)C1CN(C(=O)CCl)C1)Cc1cc(O)cc-3c1 [Compound 143] . Reported pEC50?
≥ 6.30

Entry under review: Cc1nc2ccc3cc2n1CC(C)(C)COC(=O)[C@@H]1CCCN(N1)C(=O)[C@@H](NC(=O)[C@H](C(C)C)N(C)C(=O)CNC(=O)CCl)Cc1cc(O)cc-3c1 [Compound 150] . Reported pEC50?
5.30 to 6.30

###

Test system: pERK in H358 cells
Assay: pERK inhibition in H358 cells
Type: cell-based, human
Details: 4 hours treatment, read-out: Cellular pERK inhibition
Experimental: H358 cells (5500 cells) derived from a human lung cancer were plated in a 96 well plate in media (100 uL, RPMI with 10% FBS). After 24 hours, cells were treated for 4 hours with compound or DMSO. Cells were washed twice with room temperature TBS (200 uL) and fixed for 20 minutes with 4% paraformaldehyde diluted with TBS (150 uL). Cells were washed four times for five minutes with 0.1% TritonX/TBS (150 uL) to permeabilize the membrane. […]
OUTCOME MEASURE: IC50

COMPOUND	IC50
Cc1nc2ccc3cc2n1C[C@H](C)COC(=O)[C@@H]1CCCN(N1)C(=O)[C@@H](NC(=O)[C@H](C(C)C)N(C)C(=O)C1CN(C(=O)CCl)C1)Cc1cc(O)cc-3c1 [Compound 147]	> 10 µM
CC(C)[C@@H](C(=O)N[C@H]1Cc2cc(O)cc(c2)-c2ccc3c(C(C)(C)C#N)c(C#N)n(c3c2)C[C@H](C)COC(=O)[C@@H]2CCCN(N2)C1=O)N(C)C(=O)C1CN(C(=O)CCl)C1 [Compound 85]	≤ 1 µM
CC1COC(=O)[C@@H]2CCCN(N2)C(=O)[C@@H](NC(=O)[C@H](C(C)C)N(C)C(=O)C2CN(C(=O)CCl)C2)Cc2cc(O)cc(c2)-c2ccc3c(S(C)(=O)=O)cn(c3c2)C1 (single isomer, unassigned) [Compound 111]	> 10 µM
C=CC(=O)N1CCN([C@H](C(=O)N[C@H]2Cc3cc(O)cc(c3)-c3ccc4c(Cl)nn(c4c3)CC(C)(C)COC(=O)[C@@H]3CCCN(N3)C2=O)C(C)C)C1=O [Compound 200]	> 10 µM

Entry under review: CC(C)C1COC(=O)[C@@H]2CCCN(N2)C(=O)[C@@H](NC(=O)[C@H](C(C)C)N(C)C(=O)C2CN(C(=O)CCl)C2)Cc2cc(O)cc(c2)-c2ccc3c(C(C)(C)C#N)cn(c3c2)C1 (some centres unmarked) [Compound 246] . Reported IC50?
1 to 10 µM
